Data provenance: the Kinase Knowledgebase extract (Sharma et al. 2016)

- tested-target: PIK3CA (human)
quantity-name: IC50 (nM)

Cc1nc(-c2cn3c(n2)-c2cc(-c4ccnn4[C@@H]4CCCN(C(C)C)C4)c(F)cc2OCC3)n(C(C)C)n1: 11.4

(A) Cc1nc(-c2cn3c(n2)-c2ccc(OC4CC(C)CN(C(C)C)C4)cc2OCC3)n(C(C)C)n1 (centres undefined)
(B) Cc1nc(-c2cn3c(n2)-c2cc([C@@H](C)N4CCN(C(C)(C)CO)CC4)c(F)cc2OCC3)n(C(C)C)n1
**Query** // returns A or B , whichever has the lower IC50 Response format: the label of the selected entry.
**Result** A
(A: 32.8 nM, B: 263 nM)

(1) Cc1nc(-c2cn3c(n2)-c2cc(C(O)C4CCN(C)CC4)ccc2OCC3)n(C(C)C)n1 (centres undefined)
(2) Cc1nc(-c2cn3c(n2)-c2ccc(-c4ccnn4C4CC(C)N(C)C(C)C4)cc2OCC3)n(C(C)C)n1 (centres undefined)
(3) Cc1nc(-c2cn3c(n2)-c2cc(C(C)N4CCN(C)CC4)c(F)cc2OCC3)n(C(C)C)n1 (centres undefined)
(4) CC(C)n1ncnc1-c1cn2c(n1)-c1cnc(N3CCCC3C3CCN(C)CC3)cc1OCC2 (centres undefined)
(5) Cc1nc(-c2cn3c(n2)-c2ccc(OC4(C)CNC4)cc2OCC3)n(C(C)C)n1
**Query** Ordering: ascending IC50. Please, when replying, give the labels in the order that was requested.
**Result** 5, 4, 3, 2, 1
(5: 6.2 nM, 4: 13.9 nM, 3: 49.1 nM, 2: 100 nM, 1: 193 nM)

(P) Cc1nc(-c2cn3c(n2)-c2cc([C@@H](C)N4CCN(C(C)(C)CO)CC4)ncc2OCC3)n(C(C)C)n1
(Q) Cc1nc(-c2cn3c(n2)-c2ccc(OC4(CN5CCN(C)CC5)CC4)cc2OCC3)n(C(C)C)n1
(R) CC(C)n1ncnc1-c1cn2c(n1)-c1cc([S+]([O-])C3CCN(C(C)(C)C)CC3)ccc1OCC2 (centres undefined)
(S) CC(C)n1ncnc1-c1cn2c(n1)-c1cnc(N3CCCC3CN3CCCC3)cc1OCC2 (centres undefined)
**Query** Ordering: ascending IC50. Please, when replying, give the labels in the order that was requested.
**Result** S, Q, R, P
(S: 12.9 nM, Q: 86.4 nM, R: 149 nM, P: 219 nM)

(I) Cc1nc(-c2cn3c(n2)-c2ccc(N4CCCC4C4CCN(S(C)(=O)=O)CC4)cc2OCC3)n(C(C)C)n1 (centres undefined)
(II) CCN1CCN(C(C)c2cc3c(cc2F)OCCn2cc(-c4nc(C)nn4C(C)C)nc2-3)CC1 (centres undefined)
(III) Cc1nc(-c2cn3c(n2)-c2cc(C(=O)N4CCN(C(C)(C)CO)CC4)c(F)cc2OCC3)n(C(C)C)n1
(IV) CC(C)n1ncnc1-c1cn2c(n1)-c1cc(C(=O)N3CCN(C(C)(C)C)CC3)ccc1OCC2
(V) Cc1nc(-c2cn3c(n2)-c2cc([C@@H](C)N4CCN(C(C)(C)C)CC4)c(C)cc2OCC3)n(C(C)C)n1
**Query** Order the items by recorded IC50; the first position goes to the largest value. Please, when replying, give the labels in the order that was requested.
**Result** III, II, V, IV, I
(III: 172 nM, II: 86.8 nM, V: 52.2 nM, IV: 24.9 nM, I: 14.6 nM)
